Measured values drawn from patent USH1209H for this set.

- MEASUREMENT_DESCRIPTION: Baboon plasma analyses (total plasma radioactivity clearance and unchanged radioligand)
- MEASUREMENT_CONTEXT: baboon, plasma, iv, % [^18 F]-N-Methylspiroperidol in Plasma, baboon plasma, 4.0 min after injection
READOUT_NAME: remaining at 4 min (%)

1) CN1CN(c2ccccc2)C2(CCN(CCCC(=O)c3ccc([18F])cc3)CC2)C1=O [[^18 F]-N-methylspiroperidol] : 66

---

- MEASUREMENT_DESCRIPTION: Baboon plasma analyses (total plasma radioactivity clearance and unchanged radioligand)
- MEASUREMENT_CONTEXT: baboon, plasma, iv, % of ^18 F in CH3 CN as [^18 F]-N-Methylspiroperidol, baboon plasma, 60 min after injection
READOUT_NAME: remaining at 1 h (%)

1) CN1CN(c2ccccc2)C2(CCN(CCCC(=O)c3ccc([18F])cc3)CC2)C1=O [[^18 F]-N-methylspiroperidol] : 36

---

- MEASUREMENT_DESCRIPTION: Baboon plasma analyses (total plasma radioactivity clearance and unchanged radioligand)
- MEASUREMENT_CONTEXT: baboon, plasma, iv, % of ^18 F in CH3 CN as [^18 F]-N-Methylspiroperidol, baboon plasma, 180 min after injection
READOUT_NAME: remaining at 3 h (%)

1) CN1CN(c2ccccc2)C2(CCN(CCCC(=O)c3ccc([18F])cc3)CC2)C1=O [[^18 F]-N-methylspiroperidol] : 29

---

- MEASUREMENT_DESCRIPTION: Tissue distribution of radioactivity in mice
- Type: in vivo, mouse
- MEASUREMENT_CONTEXT: mouse brain, 120 min; mean of four mice, range 1.1-1.6; read-out: Tissue distribution, % Dose/g
- Text: As noted in Example 3 for the rat, the mouse brain uptake of radioactivity was higher for radiolabeled N-methylspiroperidol (1.1% of the administered dose).
READOUT_NAME: tissue uptake at 2 h (%ID/g)

1. CN1CN(c2ccccc2)C2(CCN(CCCC(=O)c3ccc([18F])cc3)CC2)C1=O [[^18 F]-N-methylspiroperidol] : 1.3

---

- MEASUREMENT_DESCRIPTION: Baboon plasma analyses (total plasma radioactivity clearance and unchanged radioligand)
- MEASUREMENT_CONTEXT: baboon, plasma, iv, % [^18 F]-N-Methylspiroperidol in Plasma, baboon plasma, 120 min after injection
READOUT_NAME: remaining at 2 h (%)

1) CN1CN(c2ccccc2)C2(CCN(CCCC(=O)c3ccc([18F])cc3)CC2)C1=O [[^18 F]-N-methylspiroperidol] : 11

---

- MEASUREMENT_DESCRIPTION: Baboon plasma analyses (total plasma radioactivity clearance and unchanged radioligand)
- MEASUREMENT_CONTEXT: baboon, plasma, plasma radioactivity due to unaltered radioligand, baboon plasma, 10 mins after injection
# remaining at 10 min per entry
READOUT_NAME: remaining at 10 min (%)

1. O=C(CCCN1CCC2(CC1)C(=O)NCN2c1ccccc1)c1ccc([18F])cc1 [[^18 F]spiroperidol] : 72
2. CN1CN(c2ccccc2)C2(CCN(CCCC(=O)c3ccc([18F])cc3)CC2)C1=O [[^18 F]-N-methylspiroperidol] : 43

---

- MEASUREMENT_DESCRIPTION: Tissue distribution of radioactivity in mice
- Format: in vivo, mouse
- MEASUREMENT_CONTEXT: mouse kidneys, 5 min; mean of three mice, range 11-13; read-out: Tissue distribution, % Dose/g
- Description: As noted in Example 3 for the rat, the mouse brain uptake of radioactivity was higher for radiolabeled N-methylspiroperidol (1.1% of the administered dose).
READOUT_NAME: tissue uptake at 5 min (%ID/g)

1) CN1CN(c2ccccc2)C2(CCN(CCCC(=O)c3ccc([18F])cc3)CC2)C1=O [[^18 F]-N-methylspiroperidol] : 12
